- System: HaCaT
- method-description: Cytotoxicity against human HaCaT cells assessed as LDH release at 2 uM
- Format: cell-based
Entries annotated with measured Activity
Lab book: enter the figure in mU, no units written.

CCc1cc2c(o1)-c1cccc(O)c1C(=O)C2=O: 235
O=C1c2c(O)cccc2Cc2cccc(O)c21: 294
CC(=O)c1cc2c(o1)C(=O)c1ccccc1C2=O: 331
CC1(C)CCC2=C(O1)c1ccccc1C(=O)C2=O: 329

Now, please, on to the next compound.
Task: GET /values?readout=Activity&item= CC(=O)c1cc2c(o1)C(=O)c1c(O)cccc1C2=O
Output: 346
